From: ChEMBL document CHEMBL3045942

tested on: Tobacco mosaic virus; assay: In vivo antiviral activity against Tobacco mosaic virus (TMV) inoculated right side of Nicotiana tabacum L. leaves assessed as protection effect at 100 ug/mL preincubated 12 hr before viral challenge measured after 3 to 4 days; assay type: functional
measurement-label: Activity (%)
Write the answer as a number in %, unit excluded.

smiles-string: COc1cc2cc(C(=O)N3CCC[C@H]3C)c3cc(OC)c(OC)cc3c2cc1OC
readout-units: %
val: 18.9

smiles-string: COc1cc2c3c(c4cc(OC)c(OC)cc4c2cc1OC)NC(=O)[C@@H]1CCCN1C3
readout-units: %
val: 7.6

smiles-string: CNCC(=O)N[C@@H](CO)C(=O)N[C@H]1[C@H](O)[C@@H](O)[C@H](n2ccc(N)nc2=O)O[C@@H]1C(N)=O
readout-units: %
val: 25.2

smiles-string: COc1ccc2c3c(c4cc(OC)c(OC)cc4c2c1)[C@H](O)[C@@H]1CCCN1C3
readout-units: %
val: 0

Now let's try a different one.
Input line: What Activity value was documented for this compound, `COc1cc2c3c(c4cc(OC)c(OC)cc4c2cc1OC)[C@@H](O)[C@H]1CCCN1C3` ?
Output line: 26.5
